- system-tested: HLA-B*08:01
- protocol-details: IEDB peptide-MHC binding, purified MHC/competitive/radioactivity; filed as Kd, often an IC50 or EC50 that approximates it; bounds were set here for any values at or beyond the usual limits of such assays
- condition-label: source organism: Vaccinia virus Copenhagen
experimental-endpoint: Kd (nM)

# sequence, test-result
data = [
    ("KTMAVTYEL", 18.7),
]

---

- system-tested: HLA-B*48:01
- protocol-details: IEDB peptide-MHC binding, purified MHC/direct/fluorescence; filed as Kd, often an IC50 or EC50 that approximates it; bounds were set here for any values at or beyond the usual limits of such assays
- condition-label: source organism: Camelpox virus CMS

# sequence, system-tested, Kd
data = [
    ("KVFFGPIYY", "HLA-B*48:01", "≥ 20 µM"),
]

---

- system-tested: HLA-A*24:03
- protocol-details: IEDB peptide-MHC binding, purified MHC/competitive/fluorescence; filed as Kd, often an IC50 or EC50 that approximates it; bounds were set here for any values at or beyond the usual limits of such assays
- condition-label: source organism: Bos taurus
pKd: −log10 of the molar value.

# sequence, pKd
rows = [
    ("KLGEGFKSL", "≤ 4.70"),
]

---

- system-tested: HLA-C*12:03
- protocol-details: IEDB peptide-MHC binding, purified MHC/direct/fluorescence; filed as Kd, often an IC50 or EC50 that approximates it; bounds were set here for any values at or beyond the usual limits of such assays
- condition-label: source organism: Leishmania panamensis
pKd: −log10 of the molar value.

# sequence, system-tested, pKd
measured = [
    ("FSLENVRLM", "HLA-C*12:03", 6.11),
]

---

- system-tested: HLA-A*26:01
- protocol-details: IEDB peptide-MHC binding, purified MHC/competitive/fluorescence; filed as Kd, often an IC50 or EC50 that approximates it; bounds were set here for any values at or beyond the usual limits of such assays
- condition-label: source organism: Tai Forest ebolavirus

# sequence, system-tested, Kd
records = [
    ("FAEGVIAFL", "HLA-A*26:01", "≥ 20 µM"),
]

---

- system-tested: HLA-A*02:11
- protocol-details: IEDB peptide-MHC binding, purified MHC/direct/fluorescence; filed as Kd, often an IC50 or EC50 that approximates it; bounds were set here for any values at or beyond the usual limits of such assays
- condition-label: source organism: Rio Mamore hantavirus

# sequence, system-tested, Kd
records = [
    ("LQPSDTLLF", "HLA-A*02:11", "≥ 20 µM"),
]

---

- system-tested: HLA-A*02:19
- protocol-details: IEDB peptide-MHC binding, purified MHC/direct/fluorescence; filed as Kd, often an IC50 or EC50 that approximates it; bounds were set here for any values at or beyond the usual limits of such assays
- condition-label: source organism: Burkholderia mallei ATCC 23344
pKd: −log10 of the molar value.

# sequence, pKd
measured = [
    ("MSADNAGAL", "≤ 4.70"),
]

---

- system-tested: HLA-B*40:01
- protocol-details: IEDB peptide-MHC binding, purified MHC/direct/fluorescence; filed as Kd, often an IC50 or EC50 that approximates it; bounds were set here for any values at or beyond the usual limits of such assays
- condition-label: source organism: Camelpox virus CMS
experimental-endpoint: Kd

# sequence, test-result
measured = [
    ("KVFFGPIYY", "≥ 20 µM"),
]

---

- system-tested: HLA-A*11:01
- protocol-details: IEDB peptide-MHC binding, purified MHC/competitive/radioactivity; filed as Kd, often an IC50 or EC50 that approximates it; bounds were set here for any values at or beyond the usual limits of such assays
- condition-label: source organism: Dengue virus 1 Brazil/97-11/1997
pKd: −log10 of the molar value.

# sequence, pKd
records = [
    ("ITANPIVTDK", 7.08),
    ("AGLAFSLMK", 7.95),
    ("GVTLFFLSGK", 7.62),
    ("ATRLENIMWK", 8.20),
    ("VTLFFLSGK", 7.91),
    ("AIGTSITQK", 7.22),
]

---

Documented pKd across a set of sequences
- system-tested: HLA-A*03:01
- protocol-details: IEDB peptide-MHC binding, purified MHC/direct/fluorescence; filed as Kd, often an IC50 or EC50 that approximates it; bounds were set here for any values at or beyond the usual limits of such assays
- condition-label: source organism: West Nile virus
pKd: −log10 of the molar value.
experimental-endpoint: pKd

# sequence, system-tested, test-result
rows = [
    ("GMSWITQGL", "HLA-A*03:01", "≤ 4.70"),
    ("GRGPIRFVL", "HLA-A*03:01", "≤ 4.70"),
]

---

- system-tested: HLA-B*18:01
- protocol-details: IEDB peptide-MHC binding, purified MHC/direct/fluorescence; filed as Kd, often an IC50 or EC50 that approximates it; bounds were set here for any values at or beyond the usual limits of such assays
- condition-label: source organism: Escherichia coli O157:H7
pKd: −log10 of the molar value.

# sequence, system-tested, pKd
rows = [
    ("NLPSKPVWL", "HLA-B*18:01", "≤ 4.70"),
]

---

- system-tested: HLA-B*08:01
- protocol-details: IEDB peptide-MHC binding, purified MHC/competitive/radioactivity; filed as Kd, often an IC50 or EC50 that approximates it; bounds were set here for any values at or beyond the usual limits of such assays
- condition-label: source organism: Dengue virus 4 Dominica/814669/1981
pKd: −log10 of the molar value.

# sequence, system-tested, pKd
data = [
    ("WMIRILIGFL", "HLA-B*08:01", 6.77),
]

---

- system-tested: HLA-A*11:01
- protocol-details: IEDB peptide-MHC binding, purified MHC/competitive/radioactivity; filed as Kd, often an IC50 or EC50 that approximates it; bounds were set here for any values at or beyond the usual limits of such assays
- condition-label: source organism: Vaccinia virus Copenhagen
pKd: −log10 of the molar value.

# sequence, system-tested, pKd
rows = [
    ("NTIVFGIYK", "HLA-A*11:01", 5.97),
]

---

- system-tested: HLA-A*02:01
- protocol-details: IEDB peptide-MHC binding, purified MHC/competitive/radioactivity; filed as Kd, often an IC50 or EC50 that approximates it; bounds were set here for any values at or beyond the usual limits of such assays
- condition-label: source organism: Dengue virus 4 Philippines/H241/1956
pKd: −log10 of the molar value.
Recorded pKd for the following sequences

# sequence, pKd
data = [
    ("DLMEFIDGI", 7.13),
    ("GLYPLAIPV", 8.97),
]

---

- system-tested: HLA-A*24:02
- protocol-details: IEDB peptide-MHC binding, purified MHC/competitive/fluorescence; bounds were set here for any values at or beyond the usual limits of such assays
- condition-label: source organism: Zaire ebolavirus

# sequence, bound-operator, IC50 [µM]
data = [
    ("RTNFLIKFL", "=", 10.2),
    ("MYRHILRSQ", "=", 56),
    ("QYQQLREAA", "≥", 73.9),
    ("ERGVRLHPL", "=", 44.3),
    ("VMNHKNKFM", "=", 2.14),
    ("AVKYLEGHG", "≥", 117),
    ("SNSVAQARF", "≥", 83.6),
    ("SGSTSPRML", "≥", 188),
]

---

- system-tested: HLA-A*03:01
- protocol-details: IEDB peptide-MHC binding, purified MHC/direct/fluorescence; filed as Kd, often an IC50 or EC50 that approximates it; bounds were set here for any values at or beyond the usual limits of such assays
- condition-label: source organism: Choclo virus
experimental-endpoint: Kd

# sequence, system-tested, experimental-endpoint, test-result
data = [
    ("FVKDWMDRI", "HLA-A*03:01", "Kd", "≥ 20 µM"),
]

---

- system-tested: HLA-B*07:02
- protocol-details: IEDB peptide-MHC binding, purified MHC/competitive/radioactivity; filed as Kd, often an IC50 or EC50 that approximates it; bounds were set here for any values at or beyond the usual limits of such assays
- condition-label: source organism: Triticum aestivum
experimental-endpoint: Kd (µM)

# sequence, test-result
data = [
    ("YPLGQGSF", 5.55),
    ("QPQQLPQF", 1.46),
    ("QPFLQPQLPY", 0.95),
    ("NPQAQGSV", 3.66),
]

---

- system-tested: HLA-B*15:42
- protocol-details: IEDB peptide-MHC binding, purified MHC/competitive/fluorescence; filed as Kd, often an IC50 or EC50 that approximates it; bounds were set here for any values at or beyond the usual limits of such assays
- condition-label: source organism: Mycobacterium tuberculosis C
pKd: −log10 of the molar value.
experimental-endpoint: pKd

# sequence, experimental-endpoint, test-result
measured = [
    ("APRGFRAAF", "pKd", "≤ 5.30"),
    ("APRARTAAF", "pKd", "≤ 5.30"),
]

Numbers sourced from the Immune Epitope Database (IEDB).
